pIC50: −log10 of the molar value.
// compounds with pIC50 on human GST-DYRK1A (Homo sapiens, UniProt Q13627), multi-source literature

# Compound, Experimental System, pIC50
records = [
    ("COc1cc(S(C)(=O)=O)ccc1Nc1cc(C2CC2)c2c(C#N)c[nH]c2n1", "human GST-DYRK1A (Homo sapiens, UniProt Q13627)", "6.00 to 6.52"),
    ("CC(C)c1cnn2c(NCc3ccc(-c4ccccn4)cc3)nc(NC(CO)CO)nc12", "human GST-DYRK1A (Homo sapiens, UniProt Q13627)", 6.21),
    ("COc1cc(S(=O)(=O)N2CCOCC2)ccc1Nc1nc(NC2CCCC2)c2c(C(F)(F)F)c[nH]c2n1", "human GST-DYRK1A (Homo sapiens, UniProt Q13627)", "6.00 to 6.52"),
    ("COCCn1cc2c(n1)CN(C)C(=O)CCCn1cc(c(C(F)(F)F)n1)-c1c[nH]c3ncc-2cc13", "human GST-DYRK1A (Homo sapiens, UniProt Q13627)", "> 7.30"),
    ("COc1cc(S(=O)(=O)N2CCOCC2)ccc1Nc1nc(NC2CC2)c2c(C(F)(F)F)c[nH]c2n1", "human GST-DYRK1A (Homo sapiens, UniProt Q13627)", "6.00 to 6.52"),
    ("COc1cc(S(C)(=O)=O)ccc1Nc1nc(NC2CC2)c2cc[nH]c2n1", "human GST-DYRK1A (Homo sapiens, UniProt Q13627)", "6.00 to 6.52"),
    ("Cc1cccnc1NC(=O)Nc1cccc2c1C1CC3(CCN1C2=O)OCCO3 (stereo not drawn)", "human GST-DYRK1A (Homo sapiens, UniProt Q13627)", "< 5.00"),
    ("CCNc1nc(Nc2ccc(C(=O)N3CCC(N4CCOCC4)CC3)c3c2OCO3)nc2[nH]cc(C#N)c12", "human GST-DYRK1A (Homo sapiens, UniProt Q13627)", "6.52 to 7.00"),
    ("COc1cc(S(=O)(=O)N2CCC(N3CCOCC3)CC2)ccc1Nc1cc(NC(C)C)c2c(Cl)c[nH]c2n1", "human GST-DYRK1A (Homo sapiens, UniProt Q13627)", "6.00 to 6.52"),
]
